Molecular target: Human Neutrophil Elastase (human, UniProt P08246)
Assay: pH elution of display phage from hNE beads, abbreviated protocol
Assign Recovery Relative to BITI-E7-141 to each entry below.
Hi! Could you send only the number? It should be in ratio, unit omitted.

Given MUTQE display phage (designed binder) RPDFCQLGYSAGPCVAMFPRYFYNGTSMACETFVYGGCMGNGNNFVTEKDCLQTCRGA , state its recorded Recovery Relative to BITI-E7-141. 0.85

Given AMINO2 display phage (designed binder) KPDSCQLGYSAGPCVAMFPRYFYNGTSMACETFQYGGCMGNGNNFVTEKDCLQTCRGA , state its recorded Recovery Relative to BITI-E7-141. 0.12

Given MUTP1 display phage (designed binder) RPDFCQLGYSAGPCIGMFSRYFYNGTSMACETFQYGGCMGNGNNFVTEKDCLQTCRGA , state its recorded Recovery Relative to BITI-E7-141. 0.46

Given MA-BITI-E7-141 display phage (designed binder) RPDFCQLGYSAGPCVAMFPRYFYNGTSMACQTFVYGGCMGNGNNFVTEKDCLQTCRGA , state its recorded Recovery Relative to BITI-E7-141. 1

Attribution: patent US20060134087A1
